Listed compounds paired with reported inhibition
System: Botulinum neurotoxin type F light chain protease (Clostridium botulinum)
experiment.description: Botulinum neurotoxin type F light chain protease inhibition, multiplex microsphere flow cytometry, validation set (AID 588459)
protocol.conditions: multiplex microsphere protease substrate cleavage assay, at 10 µM, hits give high values
Where a SMILES comes first, the peptide text is derived from it. [ ]: non-standard residue; d: D form. ξ: configuration not given here. ξV = CC(C)C(N)C(=O)O
readout.kind: inhibition (%)

>  <compound>
CCSc1nc(O)c(C2OC(=O)c3c2ccc(OC)c3OC)c(=O)n1CC (stereo unspecified)

>  <readout.kind>
inhibition

>  <unit.annotation>
%

>  <number>
-0.7

$$$$
>  <compound>
COc1cc(C(=O)OCCCN(C)C)cc(OC)c1OC

>  <readout.kind>
inhibition

>  <unit.annotation>
%

>  <number>
-0.2

$$$$
>  <compound>
Cc1ccc(C2=NOC(=O)/C2=C\C=C\c2ccccc2)cc1

>  <readout.kind>
inhibition

>  <unit.annotation>
%

>  <number>
2.1

$$$$
>  <compound>
COc1cc2c(cc1OC)-c1cc(OCc3ccccc3Cl)nc(=O)n1CC2

>  <readout.kind>
inhibition

>  <unit.annotation>
%

>  <number>
-0.4

$$$$
>  <compound>
O=c1ccc2c(o1)/C(=C/C=C(Cl)Cl)CCC2

>  <readout.kind>
inhibition

>  <unit.annotation>
%

>  <number>
-0.9

$$$$
>  <compound>
CCOc1cc(C=O)ccc1OCCSc1ccc(C)cc1

>  <readout.kind>
inhibition

>  <unit.annotation>
%

>  <number>
1.3

$$$$
>  <compound>
Cc1cc(C(=O)Nc2ccccc2C(=O)N2CCCCC2)ccc1[N+](=O)[O-]

>  <readout.kind>
inhibition

>  <unit.annotation>
%

>  <number>
2.8

$$$$
>  <compound>
CCCC(=O)Nc1ncnc2c1ncn2[C@@H]1O[C@@H]2COP(=O)(O)O[C@H]2[C@H]1OC(=O)CCC

>  <readout.kind>
inhibition

>  <unit.annotation>
%

>  <number>
-0.5

$$$$
>  <compound>
CC(N=C(NC#N)Nc1ccncc1)C(C)(C)C (stereo unspecified)

>  <readout.kind>
inhibition

>  <unit.annotation>
%

>  <number>
0.4

$$$$
>  <compound>
COc1cc(/C=C/C(=O)N2CCCC2)cc(OC)c1OC

>  <readout.kind>
inhibition

>  <unit.annotation>
%

>  <number>
-1.5

$$$$
>  <compound>
CC1(C#CC[N+]2(C)CCCCC2)CCC2C(O1)c1ccccc1OC2(C)C (stereo unspecified)

>  <readout.kind>
inhibition

>  <unit.annotation>
%

>  <number>
2.6

$$$$
>  <compound>
CNc1nc(N(C)C)nc(N(C)C)n1

>  <readout.kind>
inhibition

>  <unit.annotation>
%

>  <number>
1.3

$$$$
>  <compound>
CC(C)COC(=O)C1C(=O)CC(C)(O)C(C(=O)OCC(C)C)C1c1cccnc1 (stereo unspecified)

>  <readout.kind>
inhibition

>  <unit.annotation>
%

>  <number>
2.5

$$$$
>  <compound>
COc1ccc(/C=C/C(=O)Nc2ccccc2C(=O)O)cc1OC

>  <readout.kind>
inhibition

>  <unit.annotation>
%

>  <number>
2.5

$$$$
>  <compound>
O=C(O)CCCN1C(=O)NC2NC(=O)NC21 (stereo unspecified)

>  <readout.kind>
inhibition

>  <unit.annotation>
%

>  <number>
0.1

$$$$
>  <compound>
Fc1ccc(C(OCCN2CCCC2)c2ccc(Br)cc2)cc1 (stereo unspecified)

>  <readout.kind>
inhibition

>  <unit.annotation>
%

>  <number>
5.6

$$$$
>  <compound>
CC(C)CCn1c(N2CCc3ccccc3C2)nc2c1c(=O)[nH]c(=O)n2C

>  <readout.kind>
inhibition

>  <unit.annotation>
%

>  <number>
-1.6

$$$$
>  <compound>
COc1ccc(C(=O)Nc2ccccc2C(=O)NC(Cc2c[nH]c3ccccc23)C(=O)O)cc1 (stereo unspecified)

>  <readout.kind>
inhibition

>  <unit.annotation>
%

>  <number>
-0.8

$$$$
>  <compound>
C[C@H](CCC(=O)O)[C@H]1CC[C@H]2[C@@H]3C(=O)C[C@@H]4CC(=O)CC[C@]4(C)[C@H]3CC(=O)[C@]12C

>  <readout.kind>
inhibition

>  <unit.annotation>
%

>  <number>
-1.4

$$$$
>  <compound>
CC(=O)NC(C(=O)NCC(N)=O)C(C)C (stereo unspecified) (Ac-[ξV]-Gly-NH2)

>  <readout.kind>
inhibition

>  <unit.annotation>
%

>  <number>
-3

$$$$
>  <compound>
Cn1cc(/C=C/C(=O)c2ccccc2)c2ccccc21

>  <readout.kind>
inhibition

>  <unit.annotation>
%

>  <number>
-4.2

$$$$
>  <compound>
O=C(OCC(O)C(O)COC(=O)c1ccccc1)c1ccccc1 (stereo unspecified)

>  <readout.kind>
inhibition

>  <unit.annotation>
%

>  <number>
-0.4

$$$$
>  <compound>
CC(C)(C)NCC(O)COc1ccccc1C(=O)CCc1ccccc1 (stereo unspecified)

>  <readout.kind>
inhibition

>  <unit.annotation>
%

>  <number>
-5.8

$$$$
>  <compound>
COC(=O)c1ccc(COc2ccc3c(C)c(C)c(=O)oc3c2C)o1

>  <readout.kind>
inhibition

>  <unit.annotation>
%

>  <number>
1.9

$$$$
>  <compound>
O=C(O)c1cc2cc(Cl)cc(Cl)c2oc1=O

>  <readout.kind>
inhibition

>  <unit.annotation>
%

>  <number>
-2.3

$$$$
>  <compound>
C[N+](C)(C)CCCCCCCCCC[N+](C)(C)C

>  <readout.kind>
inhibition

>  <unit.annotation>
%

>  <number>
-0.3

$$$$
